- experiment-notes: Clearance in female Balb/c mouse at 5 mg/kg, iv
- Assay type: ADME, organism-based
- test-settings: in vivo

| chemical-smiles | clearance [mL/min/kg] |
| --- | --- |
| COc1cc2nccc(Oc3c(F)cc(NC(=O)c4cnccc4OC)cc3F)c2cc1OCCO | 4.11 |

* * *

- Tested on: BaF3
- experiment-notes: cells
- test-settings: Mus musculus, BaF3, 72 h
pEC50: −log10 of the molar value.
quantity-name: pEC50

| chemical-smiles | result |
| --- | --- |
| CN1CCC(COc2cnc(-c3cccc(Cn4nc(-c5cccc(C#N)c5)ccc4=O)c3)nc2)CC1 | 7.62 |
| COc1cc2nccc(Oc3c(F)cc(NC(=O)c4cnccc4OC)cc3F)c2cc1O[C@@H](C)CO | 7.43 |
| C[C@@H](c1ccc2nccn2c1)n1nnc2ncc(-c3cnn(C)c3)nc21 | 8.08 |
| Cc1ccc(C(=O)Nc2ccc(Oc3cc4cnn(C)c4cc3-c3cn[nH]c3)c(F)c2)c(=O)n1-c1ccc(F)cc1 | 6.29 |

* * *

- experiment-notes: Oral bioavailability in Balb/c mouse at 10 mg/kg
- Type: ADME, organism-based
- test-settings: in vivo

| chemical-smiles | output-unit | bioavailability |
| --- | --- | --- |
| COc1cc2nccc(Oc3c(F)cc(NC(=O)c4cnccc4OC)cc3F)c2cc1OCCO | % | 20 |
| COc1cc2nccc(Oc3c(F)cc(NC(=O)c4cnccc4OC)cc3F)c2cc1O[C@@H](C)CO | % | 100 |

* * *

Below: a set of entries, each annotated with reported IC50.
- target-of-assay: Hepatocyte growth factor receptor (Homo sapiens, UniProt P08581)
- Sequence (P08581 whole entry, the tested form may be a part): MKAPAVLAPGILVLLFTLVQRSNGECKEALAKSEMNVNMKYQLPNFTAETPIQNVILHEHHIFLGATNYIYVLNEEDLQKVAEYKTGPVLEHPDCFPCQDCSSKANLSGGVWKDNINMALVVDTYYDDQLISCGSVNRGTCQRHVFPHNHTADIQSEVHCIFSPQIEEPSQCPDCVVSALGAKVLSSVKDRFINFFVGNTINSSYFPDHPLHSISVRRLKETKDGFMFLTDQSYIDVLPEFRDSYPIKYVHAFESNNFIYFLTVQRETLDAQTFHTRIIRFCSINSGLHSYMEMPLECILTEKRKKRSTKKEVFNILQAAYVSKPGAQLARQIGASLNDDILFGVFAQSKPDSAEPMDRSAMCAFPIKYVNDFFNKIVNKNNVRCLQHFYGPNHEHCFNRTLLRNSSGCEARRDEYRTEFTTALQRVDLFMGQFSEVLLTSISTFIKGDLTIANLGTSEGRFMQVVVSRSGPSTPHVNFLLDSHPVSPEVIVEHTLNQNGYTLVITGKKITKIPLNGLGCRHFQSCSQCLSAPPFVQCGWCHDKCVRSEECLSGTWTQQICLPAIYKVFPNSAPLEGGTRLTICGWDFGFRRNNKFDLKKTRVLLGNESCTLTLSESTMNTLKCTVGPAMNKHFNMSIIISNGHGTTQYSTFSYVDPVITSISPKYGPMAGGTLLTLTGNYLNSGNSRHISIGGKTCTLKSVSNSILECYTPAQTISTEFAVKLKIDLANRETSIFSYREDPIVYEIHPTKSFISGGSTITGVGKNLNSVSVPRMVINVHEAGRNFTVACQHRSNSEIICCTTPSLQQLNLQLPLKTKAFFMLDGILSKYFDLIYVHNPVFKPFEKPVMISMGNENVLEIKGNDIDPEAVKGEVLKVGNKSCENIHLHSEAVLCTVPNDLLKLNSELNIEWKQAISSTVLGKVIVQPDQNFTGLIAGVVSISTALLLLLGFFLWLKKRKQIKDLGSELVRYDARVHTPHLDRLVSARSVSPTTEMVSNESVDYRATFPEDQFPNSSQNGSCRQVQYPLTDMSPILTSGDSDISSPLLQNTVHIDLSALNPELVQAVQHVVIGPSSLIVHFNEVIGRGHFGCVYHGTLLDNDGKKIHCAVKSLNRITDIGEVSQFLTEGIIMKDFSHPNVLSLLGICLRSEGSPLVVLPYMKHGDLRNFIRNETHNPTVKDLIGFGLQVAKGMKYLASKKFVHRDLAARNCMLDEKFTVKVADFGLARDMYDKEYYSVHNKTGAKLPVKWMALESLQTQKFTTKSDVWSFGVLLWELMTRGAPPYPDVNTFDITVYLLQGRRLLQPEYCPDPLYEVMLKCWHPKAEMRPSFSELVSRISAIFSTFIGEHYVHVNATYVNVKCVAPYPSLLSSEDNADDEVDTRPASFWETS
- experiment-notes: Inhibition of N-terminal GST-tagged wild-type human c-MET (956 to 1390 residues) extracted from baculovirus infected Sf21 cells using 5-FAM-KKKKEEIYFFF-CONH2 as substrate preincubated for 30 mins followed by ATP addition measured after 60 mins by fluorescence-based microfluidic mobility shift assay
quantity-name: IC50 (nM)

| chemical-smiles | quantity-name | output-unit | result |
| --- | --- | --- | --- |
| COc1cc2nccc(Oc3c(F)cc(NC(=O)c4cnccc4OC)cc3F)c2cc1O[C@@H](C)CO | IC50 | nM | 0.2 |
| COc1cc2nccc(Oc3ccc(NC(=O)c4ccccc4OC)cc3F)c2cc1OC | IC50 | nM | 4.4 |

* * *

# maps each entry to its inhibition
- target-of-assay: Alpha-2A adrenergic receptor (Homo sapiens)
- Sequence (whole entry): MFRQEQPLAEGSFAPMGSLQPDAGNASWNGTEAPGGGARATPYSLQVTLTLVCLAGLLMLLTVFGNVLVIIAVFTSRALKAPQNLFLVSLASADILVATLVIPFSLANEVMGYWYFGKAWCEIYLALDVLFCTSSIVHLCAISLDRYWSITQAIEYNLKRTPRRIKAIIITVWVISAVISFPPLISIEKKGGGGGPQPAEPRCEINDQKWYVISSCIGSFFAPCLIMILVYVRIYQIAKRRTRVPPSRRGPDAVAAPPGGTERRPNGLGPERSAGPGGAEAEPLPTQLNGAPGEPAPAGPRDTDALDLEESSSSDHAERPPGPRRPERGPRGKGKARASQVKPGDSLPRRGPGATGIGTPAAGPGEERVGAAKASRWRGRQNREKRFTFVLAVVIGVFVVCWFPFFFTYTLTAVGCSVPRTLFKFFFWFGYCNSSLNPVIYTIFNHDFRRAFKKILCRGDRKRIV
- experiment-notes: Inhibition of alpha 2A adrenergic receptor (unknown origin) at 10 uM by CEREP analysis relative to control

| chemical-smiles | target-of-assay | output-unit | inhibition |
| --- | --- | --- | --- |
| COc1cc2nccc(Oc3c(F)cc(NC(=O)c4cnccc4OC)cc3F)c2cc1O[C@@H](C)CO | Alpha-2A adrenergic receptor (Homo sapiens) | % | 6 |
| COc1cc2nccc(Oc3c(F)cc(NC(=O)c4cnccc4OC)cc3F)c2cc1OCCO | Alpha-2A adrenergic receptor (Homo sapiens) | % | 11 |
| CNCCOc1cc2nccc(Oc3c(F)cc(NC(=O)c4cnccc4OC)cc3F)c2cc1OC | Alpha-2A adrenergic receptor (Homo sapiens) | % | 54 |
| COc1cc2c(Oc3c(F)cc(NC(=O)c4cnccc4OC4CC4)cc3F)ccnc2cc1OCCO | Alpha-2A adrenergic receptor (Homo sapiens) | % | -1 |
| COc1cc2c(Oc3c(F)cc(NC(=O)c4cnccc4OC)cc3F)ccnc2cc1OCCO | Alpha-2A adrenergic receptor (Homo sapiens) | % | 8 |
